Measured IC50 accompanies every entry in the list below.
system: A549; assay: Cytotoxicity against human A549 cells assessed as reduction in cell viability by CCK-8 assay; format: functional, cell-based

| Compound | IC50 |
| --- | --- |
| C=C(C)[C@@H]1CC[C@]2(C(=O)OCCCCn3cncn3)CC[C@]3(C)[C@H](C[C@H]4OC(=O)C[C@@H](O)[C@]5(C)[C@@H]4[C@@]3(C)CC[C@H]5C(=C)C)[C@@H]12 | 31.3 µM |
| C=C(C)[C@@H]1CC[C@]2(C(=O)OCCCCn3cc(CCN)c4ccccc43)CC[C@]3(C)[C@H](C[C@@H](O)[C@@H]4[C@@]5(C)C(CC(=O)OC)OC(C)(C)C5CC[C@]43C)[C@@H]12 (stereo not given in full) | 7.05 µM |
| C=C(C)[C@@H]1CC[C@]2(C(=O)OCCCCn3cnc(C)c3)CC[C@]3(C)[C@H](C[C@@H](O)[C@@H]4[C@@]5(C)C(CC(=O)OC)OC(C)(C)C5CC[C@]43C)[C@@H]12 (stereo not given in full) | 35.4 µM |
| C=C(C)[C@@H]1CC[C@]2(C(=O)OCCCCBr)CC[C@]3(C)[C@H](C[C@@H](O)[C@@H]4[C@@]5(C)C(CC(=O)OC)OC(C)(C)C5CC[C@]43C)[C@@H]12 (stereo not given in full) | 46 µM |
| C=C(C)[C@@H]1CC[C@]2(C(=O)OCCCCCn3cnc(C)c3)CC[C@]3(C)[C@H](C[C@H]4OC(=O)C[C@@H](O)[C@]5(C)[C@@H]4[C@@]3(C)CC[C@H]5C(=C)C)[C@@H]12 | 12.9 µM |

----------
system: A549; experiment: Cytotoxicity against human A549 cells assessed as reduction in cell viability by CCK-8 assay; format: functional, cell-based
pIC50: −log10 of the molar value.

| Compound | pIC50 |
| --- | --- |
| C=C(C)[C@@H]1CC[C@]2(C(=O)OCCCn3cc(CCN)c4ccccc43)CC[C@]3(C)[C@H](C[C@H]4OC(=O)C[C@@H](O)[C@]5(C)[C@@H]4[C@@]3(C)CC[C@H]5C(=C)C)[C@@H]12 | 5.14 |
| C=C(C)[C@@H]1CC[C@]2(C(=O)OCCCCCn3cc(CCN)c4ccccc43)CC[C@]3(C)[C@H](C[C@@H](O)[C@@H]4[C@@]5(C)C(CC(=O)OC)OC(C)(C)C5CC[C@]43C)[C@@H]12 (stereo not given in full) | 5.18 |
| C=C(C)[C@@H]1CC[C@]2(C(=O)OCCCCCCCCCCn3ccnc3C)CC[C@]3(C)[C@H](C[C@@H](O)[C@@H]4[C@@]5(C)C(CC(=O)OC)OC(C)(C)C5CC[C@]43C)[C@@H]12 (stereo not given in full) | 4.71 |
| C=C(C)[C@@H]1CC[C@]2(C(=O)OCCCCCCCCCCn3ccnc3)CC[C@]3(C)[C@H](C[C@@H](O)[C@@H]4[C@@]5(C)C(CC(=O)OC)OC(C)(C)C5CC[C@]43C)[C@@H]12 (stereo not given in full) | 4.65 |
| C=C(C)[C@@H]1CC[C@]2(C(=O)OCCCBr)CC[C@]3(C)[C@H](C[C@H]4OC(=O)C[C@@H](O)[C@]5(C)[C@@H]4[C@@]3(C)CC[C@H]5C(=C)C)[C@@H]12 | 3.87 |

----------
system: PC-3M; experiment: Cytotoxicity against human PC-3M cells assessed as reduction in cell viability by CCK-8 assay; type: functional, cell-based
pIC50: −log10 of the molar value.
Measured pIC50 accompanies every entry in the list below.

| Molecule | pIC50 |
| --- | --- |
| C=C(C)[C@@H]1CC[C@]2(C(=O)OCCCCCCCCCCn3ccnc3)CC[C@]3(C)[C@H](C[C@H]4OC(=O)C[C@@H](O)[C@]5(C)[C@@H]4[C@@]3(C)CC[C@H]5C(=C)C)[C@@H]12 | 4.93 |
| C=C(C)[C@@H]1CC[C@]2(C(=O)OCCCn3ccnc3)CC[C@]3(C)[C@H](C[C@@H](O)[C@@H]4[C@@]5(C)C(CC(=O)OC)OC(C)(C)C5CC[C@]43C)[C@@H]12 (stereo not given in full) | 4.45 |
| C=C(C)[C@@H]1CC[C@]2(C(=O)OCCCCCn3ccnc3C)CC[C@]3(C)[C@H](C[C@H]4OC(=O)C[C@@H](O)[C@]5(C)[C@@H]4[C@@]3(C)CC[C@H]5C(=C)C)[C@@H]12 | 4.91 |
| C=C(C)[C@@H]1CC[C@]2(C(=O)OCCCCBr)CC[C@]3(C)[C@H](C[C@H]4OC(=O)C[C@@H](O)[C@]5(C)[C@@H]4[C@@]3(C)CC[C@H]5C(=C)C)[C@@H]12 | 4.09 |
| C=C(C)[C@@H]1CC[C@]2(C(=O)OCCCBr)CC[C@]3(C)[C@H](C[C@H]4OC(=O)C[C@@H](O)[C@]5(C)[C@@H]4[C@@]3(C)CC[C@H]5C(=C)C)[C@@H]12 | 3.96 |

----------
system: A549; experiment: Cytotoxicity against human A549 cells assessed as reduction in cell viability by CCK-8 assay; format: functional, cell-based
pIC50: −log10 of the molar value.

| Molecule | Test System | pIC50 |
| --- | --- | --- |
| C=C(C)[C@@H]1CC[C@]2(C(=O)OCCCCCCBr)CC[C@]3(C)[C@H](C[C@H]4OC(=O)C[C@@H](O)[C@]5(C)[C@@H]4[C@@]3(C)CC[C@H]5C(=C)C)[C@@H]12 | A549 | 4.56 |
| C=C(C)[C@@H]1CC[C@]2(C(=O)OCCCCCCCCCCn3ccnc3C)CC[C@]3(C)[C@H](C[C@H]4OC(=O)C[C@@H](O)[C@]5(C)[C@@H]4[C@@]3(C)CC[C@H]5C(=C)C)[C@@H]12 | A549 | 4.93 |
| C=C(C)[C@@H]1CC[C@]2(C(=O)OCCCCCCBr)CC[C@]3(C)[C@H](C[C@@H](O)[C@@H]4[C@@]5(C)C(CC(=O)OC)OC(C)(C)C5CC[C@]43C)[C@@H]12 (stereo partly drawn) | A549 | 4.34 |
| C=C(C)[C@@H]1CC[C@]2(C(=O)OCCCn3cc(CCN)c4ccccc43)CC[C@]3(C)[C@H](C[C@@H](O)[C@@H]4[C@@]5(C)C(CC(=O)OC)OC(C)(C)C5CC[C@]43C)[C@@H]12 (stereo partly drawn) | A549 | 5.12 |
| C=C(C)[C@@H]1CC[C@]2(C(=O)OCCCCCn3cncn3)CC[C@]3(C)[C@H](C[C@@H](O)[C@@H]4[C@@]5(C)C(CC(=O)OC)OC(C)(C)C5CC[C@]43C)[C@@H]12 (stereo partly drawn) | A549 | 4.24 |
| C=C(C)[C@@H]1CC[C@]2(C(=O)OCCCCCCn3cnc(C)c3)CC[C@]3(C)[C@H](C[C@@H](O)[C@@H]4[C@@]5(C)C(CC(=O)OC)OC(C)(C)C5CC[C@]43C)[C@@H]12 (stereo partly drawn) | A549 | 4.60 |
| C=C(C)[C@@H]1CC[C@]2(C(=O)OCCCn3ccnc3CC)CC[C@]3(C)[C@H](C[C@H]4OC(=O)C[C@@H](O)[C@]5(C)[C@@H]4[C@@]3(C)CC[C@H]5C(=C)C)[C@@H]12 | A549 | 4.67 |
| C=C(C)[C@@H]1CC[C@]2(C(=O)OCCCCCCCCCCn3ccnc3CC)CC[C@]3(C)[C@H](C[C@H]4OC(=O)C[C@@H](O)[C@]5(C)[C@@H]4[C@@]3(C)CC[C@H]5C(=C)C)[C@@H]12 | A549 | 4.82 |

----------
test system: PC-3M; assay: Cytotoxicity against human PC-3M cells assessed as reduction in cell viability by CCK-8 assay; format: functional, cell-based
Recorded IC50 determines the group label, using lower level: < 10 µM; middle level: ≥ 10 µM and < 20 µM; upper level: ≥ 20 µM

| Molecule | Cat |
| --- | --- |
| C=C(C)[C@@H]1CC[C@]2(C(=O)OCCCCCCCCCCn3ccnc3CC)CC[C@]3(C)[C@H](C[C@@H](O)[C@@H]4[C@@]5(C)C(CC(=O)OC)OC(C)(C)C5CC[C@]43C)[C@@H]12 (some centres undefined) | middle level |
| C=C(C)[C@@H]1CC[C@]2(C(=O)OCCCCCn3cnc(C)c3)CC[C@]3(C)[C@H](C[C@@H](O)[C@@H]4[C@@]5(C)C(CC(=O)OC)OC(C)(C)C5CC[C@]43C)[C@@H]12 (some centres undefined) | upper level |
| C=C(C)[C@@H]1CC[C@]2(C(=O)OCCCCn3ccnc3C)CC[C@]3(C)[C@H](C[C@H]4OC(=O)C[C@@H](O)[C@]5(C)[C@@H]4[C@@]3(C)CC[C@H]5C(=C)C)[C@@H]12 | upper level |
| C=C(C)[C@@H]1CC[C@]2(C(=O)OCCCCn3ccnc3CC)CC[C@]3(C)[C@H](C[C@@H](O)[C@@H]4[C@@]5(C)C(CC(=O)OC)OC(C)(C)C5CC[C@]43C)[C@@H]12 (some centres undefined) | upper level |
| C=C(C)[C@@H]1CC[C@]2(C(=O)OCCCCCCn3cnc(C)c3)CC[C@]3(C)[C@H](C[C@@H](O)[C@@H]4[C@@]5(C)C(CC(=O)OC)OC(C)(C)C5CC[C@]43C)[C@@H]12 (some centres undefined) | middle level |
| C=C(C)[C@@H]1CC[C@]2(C(=O)OCCCCCBr)CC[C@]3(C)[C@H](C[C@H]4OC(=O)C[C@@H](O)[C@]5(C)[C@@H]4[C@@]3(C)CC[C@H]5C(=C)C)[C@@H]12 | middle level |
| C=C(C)[C@@H]1CC[C@]2(C(=O)OCCCCn3ccnc3CC)CC[C@]3(C)[C@H](C[C@H]4OC(=O)C[C@@H](O)[C@]5(C)[C@@H]4[C@@]3(C)CC[C@H]5C(=C)C)[C@@H]12 | middle level |
| C=C(C)[C@@H]1CC[C@]2(C(=O)OCCCCCCn3cncn3)CC[C@]3(C)[C@H](C[C@@H](O)[C@@H]4[C@@]5(C)C(CC(=O)OC)OC(C)(C)C5CC[C@]43C)[C@@H]12 (some centres undefined) | upper level |
| C=C(C)[C@@H]1CC[C@]2(C(=O)OCCCCCCn3cncn3)CC[C@]3(C)[C@H](C[C@H]4OC(=O)C[C@@H](O)[C@]5(C)[C@@H]4[C@@]3(C)CC[C@H]5C(=C)C)[C@@H]12 | upper level |
| C=C(C)[C@@H]1CC[C@]2(C(=O)OCCCCn3cnc(C)c3)CC[C@]3(C)[C@H](C[C@H]4OC(=O)C[C@@H](O)[C@]5(C)[C@@H]4[C@@]3(C)CC[C@H]5C(=C)C)[C@@H]12 | middle level |
| C=C(C)[C@@H]1CC[C@]2(C(=O)OCCCCCCn3cc(CCN)c4ccccc43)CC[C@]3(C)[C@H](C[C@@H](O)[C@@H]4[C@@]5(C)C(CC(=O)OC)OC(C)(C)C5CC[C@]43C)[C@@H]12 (some centres undefined) | lower level |
| C=C(C)[C@@H]1CC[C@]2(C(=O)OCCCCCCCCCCn3cnc(C)c3)CC[C@]3(C)[C@H](C[C@H]4OC(=O)C[C@@H](O)[C@]5(C)[C@@H]4[C@@]3(C)CC[C@H]5C(=C)C)[C@@H]12 | middle level |
| C=C(C)[C@@H]1CC[C@]2(C(=O)OCCCCCn3ccnc3)CC[C@]3(C)[C@H](C[C@H]4OC(=O)C[C@@H](O)[C@]5(C)[C@@H]4[C@@]3(C)CC[C@H]5C(=C)C)[C@@H]12 | middle level |
| C=C(C)[C@@H]1CC[C@]2(C(=O)OCCCCn3cc(CCN)c4ccccc43)CC[C@]3(C)[C@H](C[C@H]4OC(=O)C[C@@H](O)[C@]5(C)[C@@H]4[C@@]3(C)CC[C@H]5C(=C)C)[C@@H]12 | lower level |
| C=C(C)[C@@H]1CC[C@]2(C(=O)OCCCCCCBr)CC[C@]3(C)[C@H](C[C@H]4OC(=O)C[C@@H](O)[C@]5(C)[C@@H]4[C@@]3(C)CC[C@H]5C(=C)C)[C@@H]12 | middle level |
| C=C(C)[C@@H]1CC[C@]2(C(=O)OCCCCn3cncn3)CC[C@]3(C)[C@H](C[C@H]4OC(=O)C[C@@H](O)[C@]5(C)[C@@H]4[C@@]3(C)CC[C@H]5C(=C)C)[C@@H]12 | middle level |
| C=C(C)[C@@H]1CC[C@]2(C(=O)OCCCn3cnc(C)c3)CC[C@]3(C)[C@H](C[C@@H](O)[C@@H]4[C@@]5(C)C(CC(=O)OC)OC(C)(C)C5CC[C@]43C)[C@@H]12 (some centres undefined) | upper level |
| C=C(C)[C@@H]1CC[C@]2(C(=O)OCCCCCCCCCCn3ccnc3C)CC[C@]3(C)[C@H](C[C@H]4OC(=O)C[C@@H](O)[C@]5(C)[C@@H]4[C@@]3(C)CC[C@H]5C(=C)C)[C@@H]12 | lower level |
| C=C(C)[C@@H]1CC[C@]2(C(=O)OCCCCCCCCCCBr)CC[C@]3(C)[C@H](C[C@@H](O)[C@@H]4[C@@]5(C)C(CC(=O)OC)OC(C)(C)C5CC[C@]43C)[C@@H]12 (some centres undefined) | middle level |

The origin of these recorded values is ChEMBL document CHEMBL5143734.
